# Tested on: Vero E6 infected with SARS-CoV-2
# test_name: inhibition of SARS-CoV-2 cytopathic effect; higher = more antiviral protection, active = above 15
# condition_set: 10000 nM; 48 h
measured_metric: inhibition of SARS-CoV-2 cytopathic effect (%)
One number for each entry, in %.

As a guide, the following entries are already answered.
CCCOc1ccc2c(c1)CC[C@@H]1[C@@H]2CC[C@]2(C)[C@@H](OC)CC[C@@H]12    -2.79
C[C@H]1COC2=C1C(=O)C(=O)c1c2ccc2c1CCCC2(C)C    -2.92
CCN1C[C@]2(OC(=O)c3ccccc3NC(C)=O)CC[C@H](OC)[C@@]34[C@@H]2C[C@@H]([C@@H]13)[C@@]1(O)C[C@H](OC)[C@H]2C[C@@H]4[C@]1(O)[C@H]2OC    0.28
COc1nc(C)cnc1NS(=O)(=O)c1cccnc1-c1ccc(-c2nnco2)cc1    -1.47

// each molecule listed below needs its inhibition of SARS-CoV-2 cytopathic effect
1. C[C@@H](N)[C@@H](O)c1ccccc1
2. O=c1c(-c2ccc(O)cc2)coc2c([C@@H]3O[C@H](CO)[C@@H](O)[C@H](O)[C@H]3O)c(O)ccc12 [puerarin]
3. CC(C)[C@H]1[C@@H]2CC[C@@H](C2)[C@@H]1N
4. C[C@]12CCC(=O)C(O)=C1CC[C@@H]1[C@@H]2CC[C@]2(C)C(=O)CC[C@@H]12

1. 0.8
2. -0.84
3. 4.27
4. -1.65
